src = PubChem BioAssay (Tox21)

Reported Potency values are given for each entry in this list.
measurement notes: qHTS assay for identifying genotoxic compounds that show differential cytotoxicity against isogenic chicken DT40 cell lines with known DNA damage response pathways - Rad54/Ku70 mutant cell line (AID 743015); also: potency is read from the fitted curve at half-maximal effect; nearly all actives have a fitted effect of over 60% in size
details: DT40 Rad54/Ku70 mutant viability, CellTiter-Glo, 40 h; series mostly up to 66.8 µM
Inconclusive results are not listed. Activity calls are given as the source filed them. Calls follow the shape of the dose curve; as a rule, active = well fitted cell-killing curve with a large enough effect in the repeat runs; inconclusive = weak or mixed curves; inactive = no such curve, though single readings can be large or run the other way.

molecule	Potency
CCC(C)c1cc([N+](=O)[O-])cc([N+](=O)[O-])c1OC(=O)C=C(C)C (stereo unspecified)	19.3 µM (active)
Oc1ccc(C2(c3ccc(O)cc3)c3ccccc3-c3ccccc32)cc1	54.5 µM (active)
ClC1=C(Cl)C2(Cl)C3C(Cl)C(Cl)CC3C1(Cl)C2(Cl)Cl (stereo unspecified)	24.3 µM (active)
CCCN(CCC)c1c([N+](=O)[O-])cc(S(N)(=O)=O)cc1[N+](=O)[O-]	22.1 µM (active)
CCCCCCCCCCCCCCCCCCn1cc[n+](C)c1	2.16 µM (active)

----------
measurement notes: qHTS assay for small molecule activators of the heat shock response signaling pathway - cell viability counter screen (AID 743209); also: nearly all actives have a fitted effect of over 50% in size
details: HSE-bla HeLa viability, CellTiter-Glo luminescence, 5 h; series mostly up to 62.6 µM
Source text: U.S. Tox21 Program National Center for Advancing Translational Sciences [NCATS] NIH Chemical Genomics Center [NCGC] U.S. Environmental Protection Agency [EPA] National Institutes of Environmental Health Sciences [NIEHS] National Toxicology Program [NTP] U.S. Food and Drug Administration [FDA] Tox21 Assay Overview: Various chemicals, environmental and physiological stress conditions may lead to the activation of heat shock response/ unfolded protein response (HSR/UPR). […]
Results filed as inconclusive are left out. Calls of active or inactive are those of the source. The call rests on the fitted dose curve; in most records, active means well fitted cell-killing curve with a large enough effect in the repeat runs; inconclusive means weak or mixed curves, or effect the other way; inactive means no such curve, though single readings can be large or run the other way.
Possible outcomes: active, inactive

compound	label value
FC(F)(F)c1cccc(C2=CCN(CCc3ccc4ccccc4c3)CC2)c1	inactive
CC(C)[C@H](C(=O)OC(C#N)c1cccc(Oc2ccccc2)c1)c1ccc(OC(F)F)cc1 (stereo not given in full)	inactive
CCC(C)(C)C(=O)OC1=C(c2ccc(Cl)cc2Cl)C(=O)OC12CCCCC2	active
c1ccc2cc3c(cc2c1)-c1cccc2cccc-3c12	inactive
CC1(C)CN=C(NN=C(/C=C/c2ccc(C(F)(F)F)cc2)/C=C/c2ccc(C(F)(F)F)cc2)NC1	active
O=C/C(Cl)=C(/Cl)C(=O)O	active
C[C@@H]1CC[C@@]2(OC1)O[C@H]1[C@@H](O)[C@H]3[C@@H]4CC[C@H]5C[C@@H](O[C@@H]6O[C@H](CO)[C@H](O[C@@H]7O[C@H](CO)[C@@H](O)[C@H](O[C@@H]8OC[C@@H](O)[C@H](O)[C@H]8O)[C@H]7O[C@@H]7O[C@H](CO)[C@@H](O)[C@H](O[C@@H]8O[C@H](CO)[C@@H](O)[C@H](O)[C@H]8O)[C@H]7O)[C@H](O)[C@H]6O)[C@H](O)C[C@]5(C)[C@H]4CC[C@]3(C)[C@H]1[C@@H]2C	active
CCCCCCCCCCCCCCCCCCn1cc[n+](C)c1	active
CCc1nn(C)c(C(=O)NCc2ccc(C(C)(C)C)cc2)c1Cl	active
O=[N+]([O-])c1ccc(Oc2ccc(C(F)(F)F)cc2[N+](=O)[O-])cc1	inactive

----------
measurement notes: A CellTox Green Cytotoxicity Assay to monitor cytotoxicity in HEK293 cells - 32 hour (AID 1224881); also: nearly all actives have a fitted effect of over 40% in size; also: potency is read from the fitted curve at half-maximal effect
details: CellTox Green fluorescence; series mostly up to 76.8 µM
Records with an inconclusive call do not appear. Active and inactive are the calls of the source. Calls follow the shape of the dose curve; as a rule, active = well fitted activation curve with a large enough effect in the repeat runs; inconclusive = weak or mixed curves; inactive = flat fitted curve, though single readings scatter.

record smiles	Potency
CC[C@H]1C[C@@H]2C[C@H]3c4[nH]c5ccc(OC)cc5c4CCN(C2)[C@@H]13	inactive
C[C@]12CC[C@H](O)C[C@H]1CC[C@@H]1[C@@H]2C[C@@H](O)[C@]2(C)[C@@H](C3=CC(=O)OC3)CC[C@]12O	inactive
CCCCOCN(C(=O)CCl)c1c(CC)cccc1CC	inactive
CC(C)Oc1cccc(NC(=O)c2ccccc2C(F)(F)F)c1	1230 nM (active)
CN(C)CCc1c[nH]c2ccc(O)cc12	inactive
